Origin of measurements: PubChem BioAssay AID1918991

test system: 186277-243-T-J2-PDC complex spheroid growth; assay: Anticancer human tumor 186277-243-T-J2-PDC patient-derived colon adenocarcinoma cell line growth inhibition [AhR]; conditions: second compound 10 µM; first compound 3 µM; active compounds read low;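 note: luminescent signal used as a stand-in for viable cell amount; spheroids exposed to compounds for seven days before the viability read; 100% = DMSO vehicle control wells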
measuredMetric: viability, T/C (%)
Write the number in % without appending the unit.

186277-243-T-J2-PDC complex spheroid growth viability, T/C of O=C(C=Cn1cnc(-c2cc(C(F)(F)F)cc(C(F)(F)F)c2)n1)NNc1cnccn1 + Cc1cncc(-c2nc(NCCc3c[nH]c4ccccc34)c3ncn(C(C)C)c3n2)c1 is 3.02

186277-243-T-J2-PDC complex spheroid growth viability, T/C of CCN(c1cc(-c2ccc(CN3CCOCC3)cc2)cc(C(=O)NCc2c(C)cc(C)[nH]c2=O)c1C)C1CCOCC1 + Cc1cncc(-c2nc(NCCc3c[nH]c4ccccc34)c3ncn(C(C)C)c3n2)c1 is 9.95

186277-243-T-J2-PDC complex spheroid growth viability, T/C of CCN(c1cc(-c2ccc(CN3CCOCC3)cc2)cc(C(=O)NCc2c(C)cc(C)[nH]c2=O)c1C)C1CCOCC1 + Cc1ccccc1N=Nc1ccc(NC(=O)c2ccnn2C)c(C)c1 is 93.2

186277-243-T-J2-PDC complex spheroid growth viability, T/C of O=C(C=Cn1cnc(-c2cc(C(F)(F)F)cc(C(F)(F)F)c2)n1)NNc1cnccn1 + Cc1ccccc1N=Nc1ccc(NC(=O)c2ccnn2C)c(C)c1 is 12.7

186277-243-T-J2-PDC complex spheroid growth viability, T/C of CCN(c1cc(-c2ccc(CN3CCOCC3)cc2)cc(C(=O)NCc2c(C)cc(C)[nH]c2=O)c1C)C1CCOCC1 + CC(CO)NC(=O)c1cc(-c2ccc(Cl)cc2)nn(-c2cnn(C)c2)c1=O is 82.6

186277-243-T-J2-PDC complex spheroid growth viability, T/C of O=C(C=Cn1cnc(-c2cc(C(F)(F)F)cc(C(F)(F)F)c2)n1)NNc1cnccn1 + CC(CO)NC(=O)c1cc(-c2ccc(Cl)cc2)nn(-c2cnn(C)c2)c1=O is 2.03
